Test system: Huntingtin protein (HTT)
Test: Endogenous Huntingtin Protein Assay (MSD electrochemiluminescence)
Type: cell-based
Conditions: Table 1, Endogenous Huntingtin Protein Assay; read-out: IC50
Kindly supply the reported IC50 values for the records listed here.

Look at this compound and give its reported IC50. Cc1cc2cc(-c3ccc(-n4ccnn4)cc3O)nnc2n1C1CCNC2(CC2)C1 (centres unmarked)
100 to 500 nM

Look at this compound and give its reported IC50. Oc1cc(-n2ccnn2)cnc1-c1cc2ccn([C@H]3CCNC4(CC4)C3)c2nn1
< 100 nM

Look at this compound and give its reported IC50. Cc1cc2cc(-c3ccc(-n4ccnn4)cc3O)nnc2n1[C@H]1CC(C)(C)NC(C)(C)[C@H]1F
< 100 nM

Look at this compound and give its reported IC50. Oc1cc(-n2ccnn2)ccc1-c1cc2ccn(C3CCNC4(CC4)C3)c2nn1 (centres unmarked)
< 100 nM

Look at this compound and give its reported IC50. Oc1cc(-n2ccnn2)ccc1-c1cc2ccn(C3CC4(CC4)NC4(CC4)C3)c2nn1 (centres unmarked)
< 100 nM
